# System: panel of 60 human tumor cell lines
# Assay name: NCI-60 DTP human tumor cell line screening, whole panel
# Test settings: 10 μM, mean of growth percent for all tested cell lines
As shown below, each of these molecules has a reported Growth percent mean values (MG_MID) value.
Reply with just the number (in %).

Here's what some known entries look like.
Substance smiles	Tgt	Growth percent mean values (MG_MID) / %
NC(=NS(=O)(=O)c1ccccc1Cl)c1cncc(Cl)n1	panel of 60 human tumor cell lines	102.1
N/C(=N\S(=O)(=O)c1cnccc1Cl)c1cccnc1	panel of 60 human tumor cell lines	104.8
NC(=NS(=O)(=O)c1ccccc1Cl)c1ccc2ccccc2n1	panel of 60 human tumor cell lines	53.4
NC(=NS(=O)(=O)c1ccccc1Cl)c1ncccn1	panel of 60 human tumor cell lines	103.0
NC(=NS(=O)(=O)c1cnccc1Cl)c1cnccn1	panel of 60 human tumor cell lines	101.9

// query Reported Growth percent mean values (MG_MID) for NC(=NS(=O)(=O)c1cnccc1Cl)c1ccccn1 : what is it?
// result 98.2

// query Reported Growth percent mean values (MG_MID) for NC(=NS(=O)(=O)c1cnccc1Cl)c1cncc(Cl)n1 : what is it?
// result 97.8
